Test system: HCC 2998
Assay: Growth inhibition of human HCC2998 cells at 10^-5 M incubated for 48 hrs by sulforhodamine B assay relative to control
Type: functional
Calls of active or inactive are those of the source. No cut-off for these calls is given here.
Property Name: growth inhibition (GI)

Answered cases to consult:
INSERT INTO results (smiles_str, property_name, experimental_value) VALUES
  ('Clc1nc2ccccc2cc1Cn1nnnc1Cc1ccccc1', 'growth inhibition (GI)', 'Active'),
  ('Clc1nc2ccccc2cc1Cn1nnnc1CSc1ccccc1', 'growth inhibition (GI)', 'Active'),
  ('Clc1nc2ccc(Br)cc2cc1Cn1nnnc1CSc1ccccc1', 'growth inhibition (GI)', 'Active'),
  ('COc1ccc2nc(Cl)c(Cn3nnnc3Cc3ccccc3)cc2c1', 'growth inhibition (GI)', 'Active'),
  ('Cc1ccc2nc(Cl)c(Cn3nnc(CSc4ccccc4)n3)cc2c1', 'growth inhibition (GI)', 'Active');

Recorded growth inhibition (GI) for Clc1nc2ccc(Br)cc2cc1Cn1nnc(Cc2ccccc2)n1 with HCC 2998, please?
Active

Find the measured growth inhibition (GI): item Fc1ccc2nc(Cl)c(Cn3nnnc3Cc3ccccc3)cc2c1 , target or system HCC 2998.
Active

I'm curious: which growth inhibition (GI) was measured for Cc1ccc2nc(Cl)c(Cn3nnnc3CSc3ccccc3)cc2c1 tested on HCC 2998?
Active

Short answer please: growth inhibition (GI), HCC 2998, entry Fc1ccc2nc(Cl)c(Cn3nnc(Cc4ccccc4)n3)cc2c1
Active

Give growth inhibition (GI) (HCC 2998) of the following compound: COc1ccc2nc(Cl)c(Cn3nnnc3CSc3ccccc3)cc2c1
Active

Enter reported growth inhibition (GI) observed with HCC 2998 for Fc1ccc2nc(Cl)c(Cn3nnc(CSc4ccccc4)n3)cc2c1
Active

###

System: Aspergillus fumigatus
Experiment: Antifungal activity against Aspergillus fumigatus at 100 ug/ml by disc diffusion method
Type: functional
Details: read-out: IZ
Property Name: zone of inhibition at 100 µg/mL (mm)
Enter your answer as a number in mm; do not include the unit.

Known zone of inhibition at 100 µg/mL results, listed for orientation:
INSERT INTO measurements (molecule, tested_on, property_name, experimental_value) VALUES
  ('Cc1ccc2nc(Cl)c(Cn3nnc(CSc4ccccc4)n3)cc2c1', 'Aspergillus fumigatus', 'zone of inhibition at 100 µg/mL', 18),
  ('COc1ccc2nc(Cl)c(Cn3nnc(Cc4ccccc4)n3)cc2c1', 'Aspergillus fumigatus', 'zone of inhibition at 100 µg/mL', 20),
  ('Clc1nc2ccc(Br)cc2cc1Cn1nnc(CSc2ccccc2)n1', 'Aspergillus fumigatus', 'zone of inhibition at 100 µg/mL', 15),
  ('Cc1ccc2nc(Cl)c(Cn3nnc(Cc4ccccc4)n3)cc2c1', 'Aspergillus fumigatus', 'zone of inhibition at 100 µg/mL', 12),
  ('Clc1nc2ccc(Br)cc2cc1Cn1nnnc1Cc1ccccc1', 'Aspergillus fumigatus', 'zone of inhibition at 100 µg/mL', 13);

Data request, read-out zone of inhibition at 100 µg/mL, for OC(Cn1cncn1)(Cn1cncn1)c1ccc(F)cc1F [FLUCONAZOLE]
26

###

Test system: NCI-H522
Experiment: Growth inhibition of human NCI-H522 cells at 10^-5 M incubated for 48 hrs by sulforhodamine B assay relative to control
Format: functional
Active and inactive are the calls of the source. The rule behind the calls is not given here.
Property Name: growth inhibition (GI)

INSERT INTO results (smiles_str, experimental_value) VALUES
  ('COc1ccc2nc(Cl)c(Cn3nnnc3Cc3ccccc3)cc2c1', 'Active'),
  ('Clc1nc2ccccc2cc1Cn1nnnc1Cc1ccccc1', 'Active'),
  ('Clc1nc2ccc(Br)cc2cc1Cn1nnc(Cc2ccccc2)n1', 'Active'),
  ('Clc1nc2ccccc2cc1Cn1nnnc1CSc1ccccc1', 'Active');

The measurements presented in this section are drawn from ChEMBL document CHEMBL4004849.
